The measurements presented in this section are drawn from paper PMC7831505.

test system: mushroom tyrosinase; assay: Tyrosinase enzymatic assay (diphenolase activity, dose-response IC50); assay type: biochemical, Agaricus bisporus; conditions: mushroom tyrosinase diphenolase activity
Parameter: Ratio of IC50 of Kojic Acid to IC50 of TSC. Scope: all listed entries.
test-readout: Ratio of IC50 of Kojic Acid to IC50 of TSC

[
  {
    "compound": "C/C(=N\\NC(N)=S)c1cccc(N)c1 [TSC 5]",
    "readout-number": 30.6
  },
  {
    "compound": "CC(=NNC(N)=S)c1ccccc1N [TSC 4, 2’-aminoacetophenone thiosemicarbazone]",
    "readout-number": 1.8
  },
  {
    "compound": "C/C(=N\\NC(N)=S)c1ccc([N+](=O)[O-])cc1 [TSC 12]",
    "readout-number": 12.4
  },
  {
    "compound": "NC(=S)N/N=C\\c1ccccc1 [Benzaldehyde TSC, benzaldehyde thiosemicarbazone, reference compound]",
    "readout-number": 5.6
  },
  {
    "compound": "C/C(=N/NC(N)=S)c1ccccc1 [Acetophenone TSC, acetophenone thiosemicarbazones]",
    "readout-number": 13.2
  },
  {
    "compound": "COc1ccc(/C(C)=N/NC(N)=S)cc1 [TSC 3]",
    "readout-number": 11.1
  },
  {
    "compound": "C/C(=N\\NC(N)=S)c1cccc([N+](=O)[O-])c1 [TSC 11]",
    "readout-number": 1.4
  },
  {
    "compound": "COc1ccccc1C(C)=NNC(N)=S [TSC 1, 2’-methoxyacetophenone thiosemicarbazone]",
    "readout-number": 1.6
  },
  {
    "compound": "C/C(=N\\NC(N)=S)c1ccccc1[N+](=O)[O-] [TSC 10]",
    "readout-number": 0.1
  },
  {
    "compound": "CC(=NNC(N)=S)c1ccccc1O [TSC 7, 2’-hydroxyacetophenone thiosemicarbazone]",
    "readout-number": 16.5
  },
  {
    "compound": "COc1cccc(/C(C)=N/NC(N)=S)c1 [TSC 2]",
    "readout-number": 10.5
  }
]
